Test system: Escherichia coli
Assay: Antimicrobial activity against Escherichia coli after 24 hrs by twofold serial dilution method
Assay type: functional
Provide the recorded MIC for the entries that follow.
Could you give me the number in µg/mL? Just the number is fine.

Can you look up the measured MIC of CC(C)C1C(=O)CC(c2ccccc2)N(C(=O)CN2CCN(C)CC2)C1c1ccccc1 (stereo not given) for me?
100

Can you share its MIC? I mean this molecule: COc1ccc(C2C(C)C(=O)C(C)C(c3ccc(OC)cc3)N2C(=O)CN2CCN(C)CC2)cc1 (stereo not given)
25

Would you mind telling me what MIC value was observed for Cc1ccc(C2C(C)C(=O)C(C)C(c3ccc(C)cc3)N2C(=O)CN2CCN(C)CC2)cc1 (stereo not given) ?
100

Would you mind telling me what MIC value was observed for CC1C(=O)CC(c2ccccc2)N(C(=O)CN2CCN(C)CC2)C1c1ccccc1 (stereo not given) ?
100

State the recorded MIC for this entry: CC1C(=O)C(C)C(c2ccc(Cl)cc2)N(C(=O)CN2CCN(C)CC2)C1c1ccc(Cl)cc1 (stereo not given)
12.5

Form field: reported MIC of COc1ccc(C2CC(=O)C(C)C(c3ccc(OC)cc3)N2C(=O)CN2CCN(C)CC2)cc1 (stereo not given)
50

Consider the molecule shown here: CC1C(=O)CC(c2ccc(Cl)cc2)N(C(=O)CN2CCN(C)CC2)C1c1ccc(Cl)cc1 (stereo not given) What is its recorded MIC?
25

Which MIC is reported for this molecule? CC1C(=O)C(C)C(c2ccccc2)N(C(=O)CN2CCN(C)CC2)C1c1ccccc1 (stereo not given)
100

Return reported MIC; argument: O=C(O)c1cn(C2CC2)c2cc(N3CCNCC3)c(F)cc2c1=O [CIPROFLOXACIN]
25
